Biological target: HCV RNA-dependent RNA polymerase (NS5B) (Hepatitis C virus genotype 1b (isolate BK) (HCV), UniProt P26663)
Sequence (P26663 2420-3010): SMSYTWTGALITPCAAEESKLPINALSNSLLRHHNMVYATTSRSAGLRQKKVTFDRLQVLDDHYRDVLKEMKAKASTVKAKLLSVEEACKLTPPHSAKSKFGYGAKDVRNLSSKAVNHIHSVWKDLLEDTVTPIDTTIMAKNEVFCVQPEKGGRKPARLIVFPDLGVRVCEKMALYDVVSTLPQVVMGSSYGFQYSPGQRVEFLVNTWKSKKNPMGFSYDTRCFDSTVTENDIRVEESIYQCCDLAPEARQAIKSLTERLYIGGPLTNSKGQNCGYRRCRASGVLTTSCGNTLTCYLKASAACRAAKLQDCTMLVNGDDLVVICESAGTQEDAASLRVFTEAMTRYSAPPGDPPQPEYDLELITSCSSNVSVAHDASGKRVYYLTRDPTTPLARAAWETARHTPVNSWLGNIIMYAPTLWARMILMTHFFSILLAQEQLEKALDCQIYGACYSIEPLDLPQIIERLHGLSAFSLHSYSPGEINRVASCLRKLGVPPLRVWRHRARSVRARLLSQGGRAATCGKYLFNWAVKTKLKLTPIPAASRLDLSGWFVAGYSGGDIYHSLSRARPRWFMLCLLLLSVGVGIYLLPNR
Experiment: RNA-Dependent RNA HCV NS5B (polymerase) Assay and IC50 Determination
Assay type: biochemical
Details: purified HCV NS5B polymerase, polyA:U16 substrate, 32P-UTP incorporation; read-out: IC50
pIC50: −log10 of the molar value.
Exercise: state measured pIC50 for each of the compounds provided.

What does the data say about its pIC50? Entry: CNC(=O)c1c(-c2ccc(F)cc2)oc2cc(N(CCOCCOCCCc3ccccc3C(=O)OC)S(C)(=O)=O)c(C3CC3)cc12
6.00 to 7.00

Now give it for CNC(=O)c1c(-c2ccc(F)cc2)oc2cc(N(CCOCCOCCOCC(=O)O)S(C)(=O)=O)c(C3CC3)cc12 too.
6.00 to 7.00

Now give it for CNC(=O)c1c(-c2ccc(F)cc2)oc2cc(N(CCOCCCCCOC(C)C(=O)O)S(C)(=O)=O)c(C3CC3)cc12 (stereo not drawn) too.
6.00 to 7.00

Now give it for CNC(=O)c1c(-c2ccc(F)cc2)oc2cc(N(CCCCOCCc3ccc(C(=O)OC)cc3)S(C)(=O)=O)c(C3CC3)cc12 too.
6.00 to 7.00

Now give it for CNC(=O)c1c(-c2ccc(F)cc2)oc2cc(N(CCOCCOCc3ccc(C(=O)/C=C(\O)C(=O)O)cc3)S(C)(=O)=O)c(C3CC3)cc12 [Compound 02-10F] too.
< 6.00

Now give it for CNC(=O)c1c(-c2ccc(F)cc2)oc2cc(N(CCOCCOCCOCCCCCc3cccc(C(=O)CC(=O)C(=O)O)c3)S(C)(=O)=O)c(C3CC3)cc12 too.
< 6.00

###

Exercise: state measured pIC50 for each of the compounds provided.
Target: HCV RNA-dependent RNA polymerase (NS5B) (Hepatitis C virus genotype 1b (isolate BK) (HCV))
Experiment: RNA-Dependent RNA HCV NS5B (polymerase) Assay and IC50 Determination
Format: biochemical
Conditions: purified HCV NS5B polymerase, polyA:U16 substrate, 32P-UTP incorporation; read-out: IC50
pIC50: −log10 of the molar value.

What does the data say about its pIC50? Entry: CNC(=O)c1c(-c2ccc(F)cc2)oc2cc(N(CC(=O)NCC(=O)NCc3cccc(C(C)=O)c3)S(C)(=O)=O)c(C3CC3)cc12 [Compound 30-6]
< 6.00

Now give it for CNC(=O)c1c(-c2ccc(F)cc2)oc2cc(N(CCCCCCOc3ccc(C(=O)O)cc3)S(C)(=O)=O)c(C3CC3)cc12 [Compound 15-8] too.
6.00 to 7.00

Now give it for CCCCCOC(=O)c1ccc(COCCOCCN(c2cc3oc(-c4ccc(F)cc4)c(C(=O)NC)c3cc2C2CC2)S(C)(=O)=O)cc1 [Compound 06-8B4] too.
6.00 to 7.00

Now give it for CNC(=O)c1c(-c2ccc(F)cc2)oc2cc(N(CC(=O)NC(C)(C)C(=O)NCc3cccc(C(=O)C=C(O)C(=O)O)c3)S(C)(=O)=O)c(C3CC3)cc12 [Compound 09-14C] too.
< 6.00

Now give it for CNC(=O)c1c(-c2ccc(F)cc2)oc2cc(N(CCOCCOCc3ccnc(Cl)c3)S(C)(=O)=O)c(C3CC3)cc12 [Compound 19-8A] too.
> 7.00

Now give it for CNC(=O)c1c(-c2ccc(F)cc2)oc2cc(N(CC(=O)NC(C)C(=O)NCc3cccc(C(=O)C=C(O)C(=O)O)c3)S(C)(=O)=O)c(C3CC3)cc12 (stereo not drawn) [Compound 09-14F] too.
< 6.00

These data points were gathered from patent US10947210B2.
